Value source: patent US20140179664A1

Biological target: TYK2 (Homo sapiens)
Construct: endogenous in cells
Assay: Kinobeads assay, TYK2
Details: mixed Molt4/Ramos lysate, read-out: Inhibition values (IC50) TYK2
Listed here: items and their measured IC50.

Please review the following examples before continuing.
compound | system | IC50
Cn1cc(Nc2ncc(F)c(N[C@H](CO)c3cc(F)ccc3F)n2)cn1 [Compound 146] | TYK2 (Homo sapiens) | 100 to 1000 nM
Cn1cc(Nc2ncc(Cl)c(N[C@H](CO)c3cccc(N4CCOCC4=O)c3)n2)cn1 [Compound 138] | TYK2 (Homo sapiens) | 1000 to 10000 nM
O=C(O)Cn1cc(Nc2ncc(Cl)c(N[C@H](CO)c3ccccc3)n2)cn1 [Compound 24] | TYK2 (Homo sapiens) | 1000 to 10000 nM

I would be grateful if you could share the reported IC50 for Cn1cc(Nc2ncc(Cl)c(N[C@H](CO)c3cccc(N4CCOCC4=O)c3F)n2)cn1 [Compound 162] .
≥ 10000 nM

---

Biological target: TYK2 (Homo sapiens, UniProt P29597)
Construct: endogenous in cells
Sequence (P29597 whole entry): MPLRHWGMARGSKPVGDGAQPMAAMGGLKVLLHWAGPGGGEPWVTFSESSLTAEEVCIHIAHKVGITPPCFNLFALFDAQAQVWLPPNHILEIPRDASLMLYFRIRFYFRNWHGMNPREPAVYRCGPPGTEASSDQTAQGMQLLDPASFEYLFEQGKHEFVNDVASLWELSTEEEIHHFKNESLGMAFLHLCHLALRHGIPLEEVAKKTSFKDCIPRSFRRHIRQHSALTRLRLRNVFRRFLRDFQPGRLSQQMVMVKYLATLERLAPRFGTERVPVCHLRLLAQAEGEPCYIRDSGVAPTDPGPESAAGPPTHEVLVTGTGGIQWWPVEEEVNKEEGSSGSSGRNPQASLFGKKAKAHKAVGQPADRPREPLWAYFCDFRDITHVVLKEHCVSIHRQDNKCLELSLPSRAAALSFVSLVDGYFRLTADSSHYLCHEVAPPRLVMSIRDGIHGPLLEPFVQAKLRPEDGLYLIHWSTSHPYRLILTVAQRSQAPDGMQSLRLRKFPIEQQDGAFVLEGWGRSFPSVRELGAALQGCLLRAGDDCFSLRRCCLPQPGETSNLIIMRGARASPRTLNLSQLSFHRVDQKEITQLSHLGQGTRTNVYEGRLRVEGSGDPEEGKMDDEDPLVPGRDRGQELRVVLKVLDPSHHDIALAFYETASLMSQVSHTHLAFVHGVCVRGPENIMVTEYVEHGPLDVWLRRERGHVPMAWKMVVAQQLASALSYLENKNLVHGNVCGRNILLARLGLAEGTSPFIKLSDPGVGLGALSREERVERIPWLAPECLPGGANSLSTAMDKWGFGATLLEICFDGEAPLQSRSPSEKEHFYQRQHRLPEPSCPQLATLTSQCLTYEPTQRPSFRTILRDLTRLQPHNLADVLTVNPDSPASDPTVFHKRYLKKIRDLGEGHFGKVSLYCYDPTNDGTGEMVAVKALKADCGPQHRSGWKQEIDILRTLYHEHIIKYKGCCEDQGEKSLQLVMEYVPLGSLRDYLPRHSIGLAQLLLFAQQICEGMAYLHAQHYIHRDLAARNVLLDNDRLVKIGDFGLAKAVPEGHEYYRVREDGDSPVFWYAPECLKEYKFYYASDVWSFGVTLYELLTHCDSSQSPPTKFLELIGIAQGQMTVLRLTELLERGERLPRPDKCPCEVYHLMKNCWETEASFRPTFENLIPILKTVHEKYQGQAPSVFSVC
Experiment: Kinobeads assay, TYK2
Details: mixed Molt4/Ramos lysate, read-out: Inhibition values (IC50) TYK2
Known IC50 of a selection of molecules

Consider the reported IC50 for these molecules:
molecule | measurement
NC(=O)Cn1cc(Nc2ncc(Cl)c(NC(CO)c3ccccc3Cl)n2)cn1 (centres unmarked) | 100 to 1000 nM
OCCn1ccc(Nc2ncc(Cl)c(NC(CO)c3ccccc3F)n2)n1 (centres unmarked) | ≥ 10000 nM
NCCCn1cc(Nc2ncc(Cl)c(N[C@H](CO)c3ccccc3)n2)cn1 | 1000 to 10000 nM
O=C(Cn1cc(Nc2ncc(F)c(N[C@H](CO)c3ccccc3)n2)cn1)N1CCOCC1 | 100 to 1000 nM
CN(C)CCNC(=O)Cn1cc(Nc2ncc(Cl)c(N[C@H](CO)c3ccccc3)n2)cn1 | 100 to 1000 nM
CNC(=O)Cn1cc(Nc2ncc(Cl)c(N[C@H](CO)c3ccccc3F)n2)cn1 | 1000 to 10000 nM

Which IC50 is reported for this molecule? Cn1cc(Nc2ncc(Cl)c(NC(CO)c3c(F)cccc3F)n2)cn1 (centres unmarked)
1000 to 10000 nM

Field request: IC50 | item: `O=C(Cn1cc(Nc2ncc(Cl)c(N[C@H](CO)c3cccnc3)n2)cn1)N1CCOCC1`
100 to 1000 nM

Name the reported IC50 value associated with the molecule `CNC(=O)Cn1cc(Nc2ncc(Cl)c(N[C@H](CO)c3cc(F)cc(F)c3)n2)cn1`
100 to 1000 nM

Give its IC50 value. Item: OCCn1cc(Nc2ncc(Cl)c(NC(CO)Cc3ccccc3)n2)cn1 (centres unmarked)
1000 to 10000 nM

Requested read-out: IC50. Entry: `COc1ccccc1[C@@H](CO)Nc1nc(Nc2cnn(C(C)C)c2)ncc1Cl`
1000 to 10000 nM

Which IC50 value belongs to OCCn1cc(Nc2ncc(Cl)c(NC(CO)c3ccc(F)cc3)n2)cn1 (centres unmarked) ?
1000 to 10000 nM

---

Molecular target: JAK2 (Homo sapiens)
Construct: endogenous in cells
Sequence (O60674 whole entry): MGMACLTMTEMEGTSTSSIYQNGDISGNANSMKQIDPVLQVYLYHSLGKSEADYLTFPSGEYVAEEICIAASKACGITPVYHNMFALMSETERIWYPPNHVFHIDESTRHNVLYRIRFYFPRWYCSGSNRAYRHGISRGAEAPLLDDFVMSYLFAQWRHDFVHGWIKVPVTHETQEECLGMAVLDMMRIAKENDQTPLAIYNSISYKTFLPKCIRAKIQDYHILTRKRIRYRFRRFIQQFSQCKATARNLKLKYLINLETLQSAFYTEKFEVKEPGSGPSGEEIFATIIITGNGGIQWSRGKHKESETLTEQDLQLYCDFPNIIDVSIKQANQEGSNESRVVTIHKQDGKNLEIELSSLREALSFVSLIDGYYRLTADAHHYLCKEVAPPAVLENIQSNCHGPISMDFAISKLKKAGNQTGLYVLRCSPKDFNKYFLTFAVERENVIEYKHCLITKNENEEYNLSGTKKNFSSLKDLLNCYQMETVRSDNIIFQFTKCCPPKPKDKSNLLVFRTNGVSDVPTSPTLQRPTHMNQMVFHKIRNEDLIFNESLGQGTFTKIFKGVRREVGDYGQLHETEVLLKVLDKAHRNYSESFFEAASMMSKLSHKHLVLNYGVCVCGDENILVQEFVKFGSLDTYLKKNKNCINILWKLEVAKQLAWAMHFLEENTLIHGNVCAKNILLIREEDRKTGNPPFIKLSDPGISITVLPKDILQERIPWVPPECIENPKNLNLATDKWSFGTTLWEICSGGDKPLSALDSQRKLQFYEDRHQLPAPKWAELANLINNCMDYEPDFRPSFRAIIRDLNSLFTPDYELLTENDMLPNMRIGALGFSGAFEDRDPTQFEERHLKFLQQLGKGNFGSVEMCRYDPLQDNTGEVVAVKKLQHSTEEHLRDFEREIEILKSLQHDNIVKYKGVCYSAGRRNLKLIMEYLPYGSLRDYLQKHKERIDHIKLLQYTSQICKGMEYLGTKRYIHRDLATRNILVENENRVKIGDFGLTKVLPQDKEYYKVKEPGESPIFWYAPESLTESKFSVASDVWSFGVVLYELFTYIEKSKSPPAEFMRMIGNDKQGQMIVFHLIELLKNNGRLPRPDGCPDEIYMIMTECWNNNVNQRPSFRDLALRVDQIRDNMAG
Assay: Kinobeads assay, JAK2
Conditions: mixed Molt4/Ramos lysate, read-out: Inhibition values (IC50) JAK2
pIC50: −log10 of the molar value.
measured-quantity: pIC50

Returns the measured pIC50 for the input compound. Input: CNC(=O)Cn1cc(Nc2ncc(F)c(N[C@H](CO)c3cc(F)cc(F)c3)n2)cn1 [Compound 161]
5.00 to 6.00

I am curious: what pIC50 value has been reported for COc1ccccc1[C@@H](CO)Nc1nc(Nc2cnn(C(C)C)c2)ncc1Cl [Compound 105] ?
6.00 to 7.00

Could you tell me which pIC50 is on file for CC(C)(C(N)=O)n1cc(Nc2ncc(Cl)c(N[C@H](CO)c3ccccc3F)n2)cn1 [Compound 73] ?
5.00 to 6.00

Item Cn1cc(Nc2ncc(Cl)c(NC(CO)c3ccccc3Cl)n2)cn1 (stereo not drawn) [Compound 117] has what recorded pIC50?
5.00 to 6.00

Look up pIC50: OC[C@@H](Nc1nc(Nc2cn[nH]c2)ncc1Cl)c1ccccc1 [Compound 75]
5.00 to 6.00

Param item = CNC(=O)Cn1cc(Nc2ncc(Cl)c(NC(CO)c3c(F)cccc3F)n2)cn1 (stereo not drawn) [Compound 31] ; retrieve measured pIC50.
5.00 to 6.00

pIC50 lookup needed for OC[C@@H](Nc1nc(Nc2cn[nH]c2)ncc1Cl)c1cccc(F)c1 [Compound 88] , thanks.
6.00 to 7.00

I'd like to know its pIC50. The compound in question is OCC[C@@H](Nc1nc(Nc2cnn(CCO)c2)ncc1Cl)c1ccccc1 [Compound 65]
5.00 to 6.00

// query pIC50 value for entry Cn1cc(Nc2ncc(C(F)(F)F)c(NC(C)(CO)c3ccccc3)n2)cn1 (stereo not drawn) [Compound 8]
≤ 5.00
